TESTED TARGET: 14-3-3β/CFTRpS753pS768 complex (Homo sapiens, UniProt P13569+P31946)
Construct: His6 (cleaved yes); made in house; peptide synthetic
Sequence (P31946 whole entry): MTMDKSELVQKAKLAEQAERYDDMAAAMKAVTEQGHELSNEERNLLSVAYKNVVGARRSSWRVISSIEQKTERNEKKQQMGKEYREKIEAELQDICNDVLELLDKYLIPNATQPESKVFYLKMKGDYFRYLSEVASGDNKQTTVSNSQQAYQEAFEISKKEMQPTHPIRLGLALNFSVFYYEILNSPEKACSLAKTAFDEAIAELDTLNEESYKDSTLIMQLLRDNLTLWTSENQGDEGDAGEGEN
Sequence (P13569 747-774 limits assumed): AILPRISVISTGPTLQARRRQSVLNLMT
EXPERIMENTAL PROTOCOL: Dose-response fluorescence polarization (FP) assay, compound titration
Assay type: binding
SETTINGS: With 14-3-3; compound 1.90735e-9 M
Kindly return T if reported FP signal is no lower than 4; return F if it is lower.

Here's what some known entries look like.
• N=C(N)NCCCC1NCc2ccccc2Sc2ccccc2CNC(=O)C(Cc2ccc(O)cc2)NC(=O)C(CCCN)NC1=O (stereo not drawn) = T
• CN1CC(=O)NC(CCCNC(=N)N)C(=O)NC(CCC(N)=O)C(=O)NC(CCCNC(=N)N)C(=O)NCc2ccccc2-c2cccc(c2)C1 (stereo not drawn) = T
• NCCCCC1NCc2ccccc2Sc2ccccc2CNC(=O)C(Cc2cccc(Cl)c2)NC(=O)C(Cc2ccc(O)cc2)NC1=O (stereo not drawn) = T
• CC1NC(=O)C(CCCNC(=N)N)NC(=O)C2CCCN2Cc2cccc(c2)-c2ccccc2CNC(=O)C(CCCNC(=N)N)NC1=O (stereo not drawn) = F
• C=CC(C)(C)OC[C@H]1O[C@H](O[C@@H]2C3=C([C@H](C)COC(C)=O)C[C@H](O)[C@]3(C)/C=C3/[C@@H](COC)CC[C@H]3[C@@H](C)[C@H]2O)[C@H](O)[C@@H](OC(C)=O)[C@@H]1O [FC-A, fusicoccin A, reference compound] = F

### Prompt Has N=C(N)NCCCC1NC(=O)C(CCC(N)=O)NC(=O)C(CCCNC(=N)N)NC(=O)C2CCCN2Cc2cccc(c2)-c2ccccc2CNC1=O (stereo not drawn) [CY007455] a recorded FP signal greater than or equal to 4?
### Response F

====

TESTED TARGET: 14-3-3β/CFTRpS753pS768 complex (Homo sapiens, UniProt P13569+P31946)
Construct: His6 (cleaved yes); made in house; peptide synthetic
EXPERIMENTAL PROTOCOL: Dose-response fluorescence polarization (FP) assay, compound titration
Format: binding
SETTINGS: With 14-3-3; compound 0.00025 M
Method: The 14-3-3β concentration used for the FP screening assay was 10 μM (dashed line). c HTS FP assay of the Cyclenium library. The samples contain 100 nM of FITC-CFTR_pS753pS768 peptide, 10 μM 14-3-3β, and 50 μM compound. FC-A (100 µM) was added as a positive control and DMSO as the negative control. Hit compounds are defined as a polarization increase which is higher than 20% of the response of FC-A. Red squares are compounds that appeared positive in the negative control without 14-3-3. […]
ATTRIBUTE MEASURED: FP signal
Answer as a number with no unit attached.

Take a look at these entries with their results.
* C=CC(C)(C)OC[C@H]1O[C@H](O[C@@H]2C3=C([C@H](C)COC(C)=O)C[C@H](O)[C@]3(C)/C=C3/[C@@H](COC)CC[C@H]3[C@@H](C)[C@H]2O)[C@H](O)[C@@H](OC(C)=O)[C@@H]1O [FC-A, fusicoccin A, reference compound] | 104
* N=C(N)NCCCC1NC(=O)C(CCC(N)=O)NC(=O)C(CCCNC(=N)N)NC(=O)C2CCCN2Cc2cccc(c2)-c2ccccc2CNC1=O (stereo not drawn) [CY007458] | 179
* N=C(N)NCCCC1NC(=O)C(CCCCN)NCc2ccccc2Sc2ccccc2CNC(=O)C(Cc2ccc(O)cc2)NC1=O (stereo not drawn) | 143

### Prompt Which FP signal reading was recorded for the molecule NCCCC1NCc2ccccc2Sc2ccccc2CNC(=O)C(Cc2c[nH]c3ccccc23)NC(=O)C(Cc2ccccc2)NC1=O (stereo not drawn) ?
### Response 224

### Prompt Which FP signal reading was recorded for the molecule CN1CC(=O)NC(CCCNC(=N)N)C(=O)NC(CCC(N)=O)C(=O)NC(CCCNC(=N)N)C(=O)NCc2ccccc2-c2cccc(c2)C1 (stereo not drawn) ?
### Response 142

### Prompt Which FP signal reading was recorded for the molecule N=C(N)NCCCC1NCc2ccccc2Sc2ccccc2CNC(=O)C(Cc2ccc(O)cc2)NC(=O)C(CCCN)NC1=O (stereo not drawn) ?
### Response 263

====

TESTED TARGET: FITC-labeled CFTRpS753pS768 peptide (no 14-3-3) (Homo sapiens)
Construct: made in house; host or cells: synthetic peptide
EXPERIMENTAL PROTOCOL: Dose-response FP control assay in the absence of 14-3-3
Format: binding
SETTINGS: No 14-3-3; compound 4.88281e-7 M
ATTRIBUTE MEASURED: FP signal
Answer as a number with no unit attached.

Take a look at these entries with their results.
- CC1NC(=O)C(CCCNC(=N)N)NC(=O)C2CCCN2Cc2cccc(c2)-c2ccccc2CNC(=O)C(CCCNC(=N)N)NC1=O (stereo not drawn): 4
- CN1CC(=O)NC(CCCNC(=N)N)C(=O)NC(CCC(N)=O)C(=O)NC(CCCNC(=N)N)C(=O)NCc2ccccc2-c2cccc(c2)C1 (stereo not drawn): 5

Turning to the following molecule.
### Prompt Which FP signal reading was recorded for the molecule N=C(N)NCCCC1NC(=O)C(CCC(N)=O)NC(=O)C(CCCNC(=N)N)NC(=O)C2CCCN2Cc2cccc(c2)-c2ccccc2CNC1=O (stereo not drawn) [CY007455] ?
### Response 4

====

TESTED TARGET: FITC-labeled CFTRpS753pS768 peptide (no 14-3-3) (Homo sapiens)
Construct: made in house; host or cells: synthetic peptide
EXPERIMENTAL PROTOCOL: Dose-response FP control assay in the absence of 14-3-3
Type: binding
SETTINGS: No 14-3-3; compound 1.95313e-6 M
Listing: FP signal of selected compounds
Answer as a number with no unit attached.

Take a look at these entries with their results.
* CN1CC(=O)NC(CCCNC(=N)N)C(=O)NC(CCC(N)=O)C(=O)NC(CCCNC(=N)N)C(=O)NCc2ccccc2-c2cccc(c2)C1 (stereo not drawn) | 6
* N=C(N)NCCCC1NC(=O)C(CCC(N)=O)NC(=O)C(CCCNC(=N)N)NC(=O)C2CCCN2Cc2cccc(c2)-c2ccccc2CNC1=O (stereo not drawn) [CY007455] | 5
* N=C(N)NCCCC1NC(=O)C(CCCCN)NCc2ccccc2Sc2ccccc2CNC(=O)C(Cc2ccc(O)cc2)NC1=O (stereo not drawn) | 6
* NCCCCC1NCc2ccccc2Sc2ccccc2CNC(=O)C(Cc2cccc(Cl)c2)NC(=O)C(Cc2ccc(O)cc2)NC1=O (stereo not drawn) | 5
* NCCCC1NCc2ccccc2Sc2ccccc2CNC(=O)C(Cc2c[nH]c3ccccc23)NC(=O)C(Cc2ccccc2)NC1=O (stereo not drawn) | 8
* N=C(N)NCCCC1NC(=O)C(CCC(N)=O)NC(=O)C(CCCNC(=N)N)NC(=O)C2CCCN2Cc2cccc(c2)-c2ccccc2CNC1=O (stereo not drawn) [CY007458] | 5
* N=C(N)NCCCC1NCc2ccccc2Sc2ccccc2CNC(=O)C(Cc2ccc(O)cc2)NC(=O)C(CCCN)NC1=O (stereo not drawn) | 6
* C=CC(C)(C)OC[C@H]1O[C@H](O[C@@H]2C3=C([C@H](C)COC(C)=O)C[C@H](O)[C@]3(C)/C=C3/[C@@H](COC)CC[C@H]3[C@@H](C)[C@H]2O)[C@H](O)[C@@H](OC(C)=O)[C@@H]1O [FC-A, fusicoccin A, reference compound] | 6

### Prompt # value lookup — system FITC-labeled CFTRpS753pS768 peptide (no 14-3-3) (Homo sapiens), readout FP signal, item CC1NC(=O)C(CCCNC(=N)N)NC(=O)C2CCCN2Cc2cccc(c2)-c2ccccc2CNC(=O)C(CCCNC(=N)N)NC1=O (stereo not drawn)
### Response 5

====

TESTED TARGET: FITC-labeled CFTRpS753pS768 peptide (no 14-3-3) (Homo sapiens)
Construct: made in house; host or cells: synthetic peptide
EXPERIMENTAL PROTOCOL: Dose-response FP control assay in the absence of 14-3-3
Type: binding
SETTINGS: No 14-3-3; compound 1.2207e-7 M
Method: The 14-3-3β concentration used for the FP screening assay was 10 μM (dashed line). c HTS FP assay of the Cyclenium library. The samples contain 100 nM of FITC-CFTR_pS753pS768 peptide, 10 μM 14-3-3β, and 50 μM compound. FC-A (100 µM) was added as a positive control and DMSO as the negative control. Hit compounds are defined as a polarization increase which is higher than 20% of the response of FC-A. Red squares are compounds that appeared positive in the negative control without 14-3-3. […]
Listing: FP signal of selected compounds
Answer as a number with no unit attached.

### Prompt # value lookup — system FITC-labeled CFTRpS753pS768 peptide (no 14-3-3) (Homo sapiens), readout FP signal, item N=C(N)NCCCC1NC(=O)C(CCCCN)NCc2ccccc2Sc2ccccc2CNC(=O)C(Cc2ccc(O)cc2)NC1=O (stereo not drawn) [CY001951]
### Response 4

### Prompt # value lookup — system FITC-labeled CFTRpS753pS768 peptide (no 14-3-3) (Homo sapiens), readout FP signal, item CN1CC(=O)NC(CCCNC(=N)N)C(=O)NC(CCC(N)=O)C(=O)NC(CCCNC(=N)N)C(=O)NCc2ccccc2-c2cccc(c2)C1 (stereo not drawn) [CY007491]
### Response 8

### Prompt # value lookup — system FITC-labeled CFTRpS753pS768 peptide (no 14-3-3) (Homo sapiens), readout FP signal, item C=CC(C)(C)OC[C@H]1O[C@H](O[C@@H]2C3=C([C@H](C)COC(C)=O)C[C@H](O)[C@]3(C)/C=C3/[C@@H](COC)CC[C@H]3[C@@H](C)[C@H]2O)[C@H](O)[C@@H](OC(C)=O)[C@@H]1O [FC-A, fusicoccin A, reference compound]
### Response 1

### Prompt # value lookup — system FITC-labeled CFTRpS753pS768 peptide (no 14-3-3) (Homo sapiens), readout FP signal, item NCCCCC1NCc2ccccc2Sc2ccccc2CNC(=O)C(Cc2cccc(Cl)c2)NC(=O)C(Cc2ccc(O)cc2)NC1=O (stereo not drawn) [CY007288]
### Response 4

### Prompt # value lookup — system FITC-labeled CFTRpS753pS768 peptide (no 14-3-3) (Homo sapiens), readout FP signal, item CC1NC(=O)C(CCCNC(=N)N)NC(=O)C2CCCN2Cc2cccc(c2)-c2ccccc2CNC(=O)C(CCCNC(=N)N)NC1=O (stereo not drawn) [CY007476]
### Response 3

### Prompt # value lookup — system FITC-labeled CFTRpS753pS768 peptide (no 14-3-3) (Homo sapiens), readout FP signal, item N=C(N)NCCCC1NC(=O)C(CCC(N)=O)NC(=O)C(CCCNC(=N)N)NC(=O)C2CCCN2Cc2cccc(c2)-c2ccccc2CNC1=O (stereo not drawn) [CY007458]
### Response 4
